- test details: Optical properties of SCOTfluors (absorbance, emission, extinction coefficient, quantum yield, solvatochromism)
- Type: physicochemical
readout kind: λabs. (nm)
Please state the figure in nm; there is no need to write the unit.

**Q:** Dear colleague, please send me the reported λabs. for `CCCNc1ccc([N+](=O)[O-])c2c1=NC1(CCCCC1)N=2` when you can.
**A:** 546

**Q:** Dear colleague, please send me the reported λabs. for `CCCNc1ccc([N+](=O)[O-])c2n[nH]nc12` when you can.
**A:** 420

**Q:** Dear colleague, please send me the reported λabs. for `CCCNc1ccc([N+](=O)[O-])c2n[se]nc12` when you can.
**A:** 510

**Q:** Dear colleague, please send me the reported λabs. for `CCCNc1ccc([N+](=O)[O-])c2nsnc12` when you can.
**A:** 476

**Q:** Dear colleague, please send me the reported λabs. for `CCCNc1ccc([N+](=O)[O-])c2c1=NC(C)(C)N=2` when you can.
**A:** 564

----------
- test details: Optical properties of SCOTfluors (absorbance, emission, extinction coefficient, quantum yield, solvatochromism)
- Format: physicochemical
readout kind: ε

**Q:** Dear colleague, please send me the reported ε for `CCCNc1ccc([N+](=O)[O-])c2n[se]nc12` when you can.
**A:** 16,300 M^−1cm^−1

**Q:** Dear colleague, please send me the reported ε for `CCCNc1ccc([N+](=O)[O-])c2n[nH]nc12` when you can.
**A:** 37,300 M^−1cm^−1

**Q:** Dear colleague, please send me the reported ε for `CCCNc1ccc([N+](=O)[O-])c2nsnc12` when you can.
**A:** 14,600 M^−1cm^−1

**Q:** Dear colleague, please send me the reported ε for `CCCNc1ccc([N+](=O)[O-])c2c1=NC1(CCCCC1)N=2` when you can.
**A:** 28,300 M^−1cm^−1

**Q:** Dear colleague, please send me the reported ε for `CCCNc1ccc([N+](=O)[O-])c2c1=NC(C)(C)N=2` when you can.
**A:** 27,300 M^−1cm^−1

----------
- test details: Optical properties of SCOTfluors (absorbance, emission, extinction coefficient, quantum yield, solvatochromism)
- Type: physicochemical
- Procedure: All compounds were dissolved in different organic solvents, including toluene, chloroform, tetrahydrofuran, ethanol, DMSO and water (final concentrations: 10-50 μM). Fluorescence spectra were acquired on a spectrophotometer upon excitation at their maxima absorbance wavelengths. The optical properties of SCOTfluor-80, 79, 78, 76 and 81 were compared with the properties of the original NBD.
readout kind: Φ
Just the number.

**Q:** Dear colleague, please send me the reported Φ for CCCNc1ccc([N+](=O)[O-])c2c1=NC(C)(C)N=2 [SCOTfluor-80] when you can.
**A:** 0.09

**Q:** Dear colleague, please send me the reported Φ for CCCNc1ccc([N+](=O)[O-])c2nsnc12 [SCOTfluor-78] when you can.
**A:** 0.54

**Q:** Dear colleague, please send me the reported Φ for CCCNc1ccc([N+](=O)[O-])c2c1=NC1(CCCCC1)N=2 [SCOTfluor-81] when you can.
**A:** 0.11

**Q:** Dear colleague, please send me the reported Φ for CCCNc1ccc([N+](=O)[O-])c2n[se]nc12 [SCOTfluor-76] when you can.
**A:** 0.20

----------
- test details: Optical properties of SCOTfluors (absorbance, emission, extinction coefficient, quantum yield, solvatochromism)
- Assay type: physicochemical
Task for the reader: assign each of the following molecules its reported λem..
Quick note: number first, unit second.

**Q:** Dear colleague, please send me the reported λem. for `CCCNc1ccc([N+](=O)[O-])c2c1=NC1(CCCCC1)N=2` when you can.
**A:** 650 nm

**Q:** Dear colleague, please send me the reported λem. for `CCCNc1ccc([N+](=O)[O-])c2nsnc12` when you can.
**A:** 548 nm

**Q:** Dear colleague, please send me the reported λem. for `CCCNc1ccc([N+](=O)[O-])c2n[se]nc12` when you can.
**A:** 606 nm

**Q:** Dear colleague, please send me the reported λem. for `CCCNc1ccc([N+](=O)[O-])c2c1=NC(C)(C)N=2` when you can.
**A:** 650 nm

**Q:** Dear colleague, please send me the reported λem. for `CCCNc1ccc([N+](=O)[O-])c2n[nH]nc12` when you can.
**A:** 460 nm
